Taken from ChEMBL document CHEMBL5058577.

Parameter Population Mitotic Cells (%): see the listing below.
Tested on: U2OS
assayProtocol: Multiplex assay against U2OS
Type: toxicity, cell-based
testConditions: human, 48 h, 10 µM, compound concentration 10 uM, replicate 1
Please state the figure in %; there is no need to write the unit.

Answered cases to consult:
[[record]]
compound = "Nc1nc(CC(=O)Nc2ccc(CCNC[C@H](O)c3ccccc3)cc2)cs1 [MIRABEGRON]"
systemundertest = "U2OS"
number = 12

[[record]]
compound = "CCCCC[C@H](O)/C=C/[C@H]1[C@H](O)CC(=O)[C@@H]1CCCCCCC(=O)O [ALPROSTADIL]"
systemundertest = "U2OS"
number = 11

[[record]]
compound = "CC(C)(O)C(=O)N1CCN(c2ccc(C(F)(F)F)c(C3=C(c4c[nH]c5ccccc45)C(=O)NC3=O)c2)CC1"
systemundertest = "U2OS"
number = 4


Please look at the following compound next.
Ask: Param request: Population Mitotic Cells (%) | system U2OS | item Cc1cc(NC(=O)NCCN2CCC(O)(Cc3ccccc3)CC2)c2ccccc2n1 [PALOSURAN]
Result: 2

----------
System: U2OS
assayProtocol: Multiplex assay against U2OS
Type: toxicity, cell-based
testConditions: human, 12 h, 10 µM, compound concentration 10 uM, replicate 2
valueType: Population Healthy Nuclei (%)
Write the number in % without appending the unit.

Solved entries (count: 3):
[[record]]
compound = "COc1cc(Nc2ncc3c(n2)-c2ccc(Cl)cc2C(c2c(F)cccc2OC)=NC3)ccc1C(=O)O [ALISERTIB]"
systemundertest = "U2OS"
number = 82

[[record]]
compound = "CN1C[C@H](C(=O)N[C@]2(C)O[C@@]3(O)[C@@H]4CCCN4C(=O)[C@H](Cc4ccccc4)N3C2=O)C[C@@H]2c3cccc4[nH]cc(c34)C[C@H]21.CS(=O)(=O)O [DIHYDROERGOTAMINE MESYLATE]"
systemundertest = "U2OS"
number = 77

[[record]]
compound = "Cc1cc(NC(=O)NCCN2CCC(O)(Cc3ccccc3)CC2)c2ccccc2n1 [PALOSURAN]"
systemundertest = "U2OS"
number = 70


Ask: Note Population Healthy Nuclei (%) for the compound shown: C[C@@H]1CC(=O)Nc2cccc(-c3ccc4c(c3)c(-c3cnn(C)c3)nn4C)c2N1
Result: 74

Ask: Please list Population Healthy Nuclei (%) recorded for the compound O=C(NCCNCC(O)COc1ccc(O)cc1)N1CCOCC1.O=C(NCCNCC(O)COc1ccc(O)cc1)N1CCOCC1.O=C(O)/C=C/C(=O)O (stereo unspecified) [XAMOTEROL FUMARATE]
Result: 73

Ask: Answer with reported Population Healthy Nuclei (%) of Cc1cc(-c2ccc3c(c2)CC[C@H]3N2CC3(CCN(C(=O)Cc4cn5cc(C)sc5n4)CC3)C2)ncn1 [PF-5190457]
Result: 74

----------
System: U2OS
assayProtocol: Multiplex assay against U2OS
Format: toxicity, cell-based
testConditions: human, 24 h, 1 µM, compound concentration 1 uM, replicate 1
valueType: Population Mitotic Cells (%)
Give just the number in %; leave the unit off.

Recorded Population Mitotic Cells (%), per entry:
[[record]]
molecule = "Cn1cc(C(=O)OCC2CCN(CCNS(C)(=O)=O)CC2)c2ccccc21"
unitstext = "%"
number = 4

[[record]]
molecule = "CC(C)(C)c1ccc(CSc2cnn(C(C)(C)C)c(=O)c2Cl)cc1"
unitstext = "%"
number = 16

[[record]]
molecule = "O=C(Nc1cc(-c2ccccc2)nn1-c1ccccc1F)c1ccc([N+](=O)[O-])cc1"
unitstext = "%"
number = 8

[[record]]
molecule = "COc1cc2nc(N3CCN(C(=O)COc4c(OC)cccc4C(C)C)CC3)nc(N)c2cc1OC.Cl.Cl"
unitstext = "%"
number = 15

[[record]]
molecule = "COc1cc(OC2CCN(C(C)=O)CC2)ccc1C(=O)N1CCC(N2C(=O)OCc3ccccc32)CC1"
unitstext = "%"
number = 17

[[record]]
molecule = "O=C(NCCNCC(O)COc1ccc(O)cc1)N1CCOCC1.O=C(NCCNCC(O)COc1ccc(O)cc1)N1CCOCC1.O=C(O)/C=C/C(=O)O (stereo not given) [XAMOTEROL FUMARATE]"
unitstext = "%"
number = 15

[[record]]
molecule = "O=C(O)CCC/C=C\\CC1C(O)CC(O)C1/C=C/C(O)COc1cccc(Cl)c1 (stereo not given)"
unitstext = "%"
number = 18

[[record]]
molecule = "Cc1cc(-c2ccc3c(c2)CC[C@H]3N2CC3(CCN(C(=O)Cc4cn5cc(C)sc5n4)CC3)C2)ncn1"
unitstext = "%"
number = 30


Ask: Return Population Mitotic Cells (%) (reported value) for this molecule: OCCCNc1cc(-c2ccnc(Nc3cccc(Cl)c3)n2)ccn1
Result: 4

Ask: Indicate its recorded Population Mitotic Cells (%); the molecule in question is COCCn1c(C)c(C)s/c1=N\C(=O)C1C(C)(C)C1(C)C
Result: 10

----------
System: HEK-293T
assayProtocol: Multiplex assay against HEK293T
Type: toxicity, cell-based
testConditions: human, 48 h, 1 µM, compound concentration 1 uM, replicate 1
# key: entry, value: Population Mitotic Cells (%)
Please respond with the number in % and leave the unit unwritten.

Consider the reported Population Mitotic Cells (%) for these molecules:
[[record]]
molecule = "COc1cc2nc(N3CCN(C(=O)COc4c(OC)cccc4C(C)C)CC3)nc(N)c2cc1OC.Cl.Cl"
systemundertest = "HEK-293T"
unitstext = "%"
number = 71

[[record]]
molecule = "CC(F)(F)CN1CCOc2c(nn(-c3ccccc3Cl)c2-c2ccc(Cl)cc2)C1=O"
systemundertest = "HEK-293T"
unitstext = "%"
number = 77


Let us move to another entry and its Population Mitotic Cells (%).
Ask: Indicate its recorded Population Mitotic Cells (%); the molecule in question is CCC(=O)OCC(=O)[C@@]1(OC(=O)CC)[C@@H](C)C[C@H]2[C@@H]3CCC4=CC(=O)C=C[C@]4(C)[C@@]3(Cl)[C@@H](O)C[C@@]21C [BECLOMETHASONE DIPROPIONATE]
Result: 69

----------
A collection of compounds and their measured Population Hoechst High Intensity Objects (%)
Test system: U2OS
assayProtocol: Multiplex assay against U2OS
Type: toxicity, cell-based
testConditions: human, 12 h, 10 µM, compound concentration 10 uM, replicate 2
I only need the number, in %, no unit after it.

[[record]]
compound = "CC(C)(O)C(=O)N1CCN(c2ccc(C(F)(F)F)c(C3=C(c4c[nH]c5ccccc45)C(=O)NC3=O)c2)CC1"
number = 1

[[record]]
compound = "CN1CCN2c3ccccc3Cc3ccccc3C2C1.Cl (stereo not drawn) [MIANSERIN HYDROCHLORIDE]"
number = 1


Let us move to another entry and its Population Hoechst High Intensity Objects (%).
Ask: Please report Population Hoechst High Intensity Objects (%) for the following compound: CSc1nc(NC2CCCC2)c([N+](=O)[O-])c(NC2CCCC2)n1
Result: 1

----------
System: Fibroblast
assayProtocol: Multiplex assay against human fibroblast
Type: toxicity, cell-based
testConditions: 24 h, 1 µM, compound concentration 1 uM, replicate 1
Reported Population Pyknosed Nuclei (%) values are given for each entry in this list.
Provide the reading as a plain figure in %.

[[record]]
compound = "Cc1ccc(OCC(O)C(C)NC(C)C)c2c1CCC2.Cl (configuration not stated)"
number = 13


Ask: Please supply the value of reported Population Pyknosed Nuclei (%) for the item Nc1nc(CC(=O)Nc2ccc(CCNC[C@H](O)c3ccccc3)cc2)cs1
Result: 18

Ask: Consider the compound COCCn1c(C)c(C)s/c1=N\C(=O)C1C(C)(C)C1(C)C . State its measured Population Pyknosed Nuclei (%).
Result: 11

Ask: Complete the entry with Population Pyknosed Nuclei (%) for CN1CCC(C(=O)c2cccc(NC(=O)c3c(F)cc(F)cc3F)n2)CC1
Result: 12

Ask: Please supply the value of reported Population Pyknosed Nuclei (%) for the item CN(C)C(=O)Cn1cc(-c2ccc(-c3nnc4ccccn34)cc2)cn1
Result: 16

Ask: Give the value of Population Pyknosed Nuclei (%) reported for the following: Cc1c(Cc2ccc3ccccc3n2)c2cc(F)ccc2n1CC(=O)O
Result: 17

Ask: Identify measured Population Pyknosed Nuclei (%) corresponding to COc1cc(Nc2ncc3c(n2)-c2ccc(Cl)cc2C(c2c(F)cccc2OC)=NC3)ccc1C(=O)O
Result: 18

Ask: Consider the compound CSc1nc(NC2CCCC2)c([N+](=O)[O-])c(NC2CCCC2)n1 and give its recorded Population Pyknosed Nuclei (%).
Result: 17

Ask: Find the measured Population Pyknosed Nuclei (%) of CC(C)(C)c1ccc(CSc2cnn(C(C)(C)C)c(=O)c2Cl)cc1 and report it.
Result: 11

Ask: Write down Population Pyknosed Nuclei (%) measured for item O=C(Nc1cc(-c2ccccc2)nn1-c1ccccc1F)c1ccc([N+](=O)[O-])cc1
Result: 9

Ask: Complete the entry with Population Pyknosed Nuclei (%) for CCC(=O)OCC(=O)[C@@]1(OC(=O)CC)[C@@H](C)C[C@H]2[C@@H]3CCC4=CC(=O)C=C[C@]4(C)[C@@]3(Cl)[C@@H](O)C[C@@]21C [BECLOMETHASONE DIPROPIONATE]
Result: 18

Ask: State its Population Pyknosed Nuclei (%) for this compound: COC(c1ccccc1)(c1ccccc1)[C@H](Oc1nc(C)cc(C)n1)C(=O)O
Result: 17
